- EXPERIMENTAL_CONDITIONS: in isobutyl acetate, 310.28 K
PROPERTY: solubility (mole fraction)
// return a plain number; no unit text

Value lookup for solubility (mole fraction); key = `Cc1ccc(C(=O)O)cc1` 0.0421

* * *

- EXPERIMENTAL_CONDITIONS: in isobutyl acetate, 318.15 K
PROPERTY: solubility (mole fraction)
// return a plain number; no unit text

O=C(O)c1cccc(C(=O)O)c1    0.000438

Value lookup for solubility (mole fraction); key = `O=C(O)c1ccc(C(=O)O)cc1` 3.41e-05

* * *

- EXPERIMENTAL_CONDITIONS: in isobutyl acetate, 304.42 K
PROPERTY: solubility (mole fraction)
// return a plain number; no unit text

Value lookup for solubility (mole fraction); key = `O=C(O)c1ccccc1C(=O)O` 0.0012

* * *

- EXPERIMENTAL_CONDITIONS: in isobutyl acetate, 300.19 K
PROPERTY: solubility (mole fraction)
// return a plain number; no unit text

Value lookup for solubility (mole fraction); key = `Cc1ccc(C(=O)O)cc1` 0.0328

* * *

- EXPERIMENTAL_CONDITIONS: in isobutyl acetate, 308.15 K
PROPERTY: solubility (mole fraction)
// return a plain number; no unit text

O=C(O)c1ccc(C(=O)O)cc1    2.57e-05

Next compound, please.
Value lookup for solubility (mole fraction); key = `O=C(O)c1cccc(C(=O)O)c1` 0.000352
